Test system: SK-MEL-5 melanoma
Experiment: NCI-60 one-dose screen, 48 h
Settings: 10 µM unless noted
The panel holds about 83,000 compounds, 20% with a hit somewhere; the sample as a whole holds those more often. The source made the active and inactive calls. Rule for the calls: active = growth percent below 10; inactive = the rest.
Outcome codes: TRUE (active), FALSE (inactive)

# compound, measuredTarget, answerLabel
records = [
    ("COc1ccc(CNc2c3ccccc3nc3ccccc23)cc1OC", "SK-MEL-5 melanoma", "FALSE"),
    ("Cc1c(C)c2c(c(C)c1OC(=O)CCC(=O)[O-])CCC(C)(CCCCCCCCCCC[P+](c1ccccc1)(c1ccccc1)c1ccccc1)O2 (stereo not drawn)", "SK-MEL-5 melanoma", "TRUE"),
    ("CCOC(=O)C1=C(c2ccccc2)N=C2SC=C(c3cccc([N+](=O)[O-])c3)N2C1c1ccc(O)cc1 (stereo not drawn)", "SK-MEL-5 melanoma", "FALSE"),
]

###

System: SK-MEL-2 melanoma
Test: NCI-60 one-dose screen, 48 h (100 = growth as untreated, 0 = no growth, -100 = all killed)
Conditions: 10 µM unless noted
Compounds without any hit were thinned out: in the full panel of roughly 83,000, 20% have a hit. Calls of active or inactive are those of the source. Rule for the calls: active = growth percent below 10; inactive = the rest.
propertyLabel: growth

# testSmiles, measuredTarget, propertyLabel, observedValue
records = [
    ("CCN(CC)CCCNC(=O)c1c2c(n3ccccc13)C(=O)c1ncccc1C2=O", "SK-MEL-2 melanoma", "growth", "-55.3% (active)"),
    ("C=CN(C(=O)N1CCN(c2cc3c(cc2F)c(=O)c(C(=O)O)cn3C2CC2)CC1)c1nc(-c2ccc(C)cc2)cs1", "SK-MEL-2 melanoma", "growth", "35.2% (inactive)"),
    ("C=CCn1c(SCC(=O)Nc2ccc(C(=O)/C=C/c3cc(OC)c(OC)c(OC)c3)cc2)nnc1-c1cc(-c2ccc(S(N)(=O)=O)cc2)nc2ccccc12", "SK-MEL-2 melanoma", "growth", "100% (inactive)"),
    ("Cc1nn(-c2ccccc2)c(Oc2ccccc2)c1/C=N/NC(=O)Cn1c(=O)sc2ccccc21", "SK-MEL-2 melanoma", "growth", "42.6% (inactive)"),
    ("c1ccc2cc(Cn3cc[n+](Cc4ccc5ccccc5c4)c3)ccc2c1", "SK-MEL-2 melanoma", "growth", "-11.5% (active)"),
    ("CCOC(=O)c1cnc2sc(-c3ccc(OC)cc3)nc2c1Cl", "SK-MEL-2 melanoma", "growth", "102% (inactive)"),
    ("COc1cccc2cc(N(C)c3nc(C)nc4c3CCC4)ccc12", "SK-MEL-2 melanoma", "growth", "41% (inactive)"),
    ("COc1ccccc1NC(=O)n1c(=O)cc(C)c2ccc(O)cc21", "SK-MEL-2 melanoma", "growth", "101% (inactive)"),
    ("CC1=C2[C@@H](CC1)[C@]1(C)O[C@@](C(C)C)(C[C@H]1OC(=O)CO)[C@H]2OC(=O)CCCc1ccccc1", "SK-MEL-2 melanoma", "growth", "66.8% (inactive)"),
]

###

Test system: A498 renal
Test: NCI-60 one-dose screen, 48 h (100 = growth as untreated, 0 = no growth, -100 = all killed)
Conditions: 10 µM unless noted
This is part of a sample that, as a whole, favours compounds with a hit. Of some 83,000 tested, about 20% had one in any assay.

# molecule, growth, %
rows = [
    ("O=C(Nc1ccccc1CNc1nc(Nc2ccc(OCCN3CCCC3)cc2)ncc1Cl)NC1CCCCC1", 75.3),
    ("Cc1ccc(C(=O)Nc2ccc(CN3CCN(C)CC3)c(C(F)(F)F)c2)cc1C#Cc1cnc(N)c2ccccc12", -32.5),
    ("CC(C)n1cc(C2=C(c3cccc4ccccc34)C(=O)NC2=O)c2cc(Br)ccc21", -8.37),
    ("CC(=O)[C@H]1CC[C@]2(C)[C@@H]1CC[C@@H]1[C@@]3(C)C/C(=C/c4cccnc4)C(=O)C(C)(C)[C@@H]3CC[C@]12C", 100),
    ("C=CN(C(=O)N1CCN(c2cc3c(cc2F)c(=O)c(C(=O)O)cn3C2CC2)CC1)c1nc(-c2ccc(C)cc2)cs1", -4.05),
    ("C(=N\\Nc1nnc2n1N=C(c1ccccc1)CS2)/c1ccc(OCc2ccccc2)cc1", 108),
    ("C#Cc1c(I)n(C2OC(CO[Si](C)(C)C(C)(C)C)C3OC(C)(C)OC32)c(=O)[nH]c1=O (centres undefined)", 102),
    ("CC(=O)Cc1nsc(NC(=O)c2cc(-c3cc(Cl)ccc3Cl)oc2C)n1", 105),
    ("CCN(CC)CCCNC(=O)c1c2c(n3ccccc13)C(=O)c1ncccc1C2=O", -73),
    ("COc1ccc(S(=O)(=O)NC2c3ccccc3CC2O)cc1OC (centres undefined)", 92.7),
    ("Oc1c(Cl)cc(Cl)c2ccc(CN3CCNCC3)nc12", 63.3),
    ("C[C@H]1c2ccccc2CN1CCCOc1cc2c(cc1OCC1CC1)C1(CCCC1)C(N)=N2", 32.5),
    ("Cn1cc(-c2nc(-c3c[nH]c4ccncc34)cs2)c2cc(F)ccc21", -63.5),
    ("CC(=O)O[C@H]1CC[C@@]2(C)C(=CC[C@@H]3[C@@H]2CC[C@]2(C)C(Cl)=C(c4nc5ccc(Cl)cn5c4NC(C)(C)C)C[C@@H]32)C1", 92.8),
    ("O=C1C=CC2(O)OC(c3ccccc3)CC(=O)C2=C1O (centres undefined)", 96),
    ("Cc1ccc2c(n1)C[C@H](C(C)(C)O)CC[C@H]2C", 98.1),
    ("N#CC1=C(N)Oc2c(ccc3cccnc23)C1c1ccccc1 (centres undefined)", 9.1),
    ("Cn1cc(-c2ccc3c(Nc4cccc(NC(=O)Nc5cccc(F)c5)c4)ncnc3c2)cn1", 41.9),
    ("COC(=O)c1sc(-c2ccc(C)cc2)cc1O", 98.5),
]

###

Tested on: RPMI-8226 leukemia
Test: NCI-60 one-dose screen, 48 h (100 = growth as untreated, 0 = no growth, -100 = all killed)
Details: 10 µM unless noted
About 83,000 compounds went through this panel and 20% of them were active in at least one assay; those are over-represented in the sample as a whole.

# compound, growth, %
measured = [
    ("COc1ccc(NC(=O)c2ccc(Cl)cc2Cl)cc1", 101),
    ("Cc1c(-c2cnc3ccc(Cl)cc3c2C(=O)O)nnn1-c1ccc(Cl)cc1", 105),
    ("C/C(=N\\NC(=O)c1ccc(C(C)(C)C)cc1)c1ccc(O)cc1O", 28.5),
    ("CN1/C(=C/C=C/c2n(Cc3ccc4ccccc4c3)c(Cl)c(Cl)[n+]2Cc2ccc3ccccc3c2)Oc2ccccc21", -53.1),
    ("CCN(CC)CCCNC(=O)c1c2c(n3ccccc13)C(=O)c1ncccc1C2=O", -23.8),
    ("CC(CN)[C@@H]1CC[C@]2(CO)CC[C@]3(C)[C@H](CC[C@@H]4[C@@]5(C)CCC(NCCO)C(C)(C)[C@@H]5CC[C@]43C)[C@@H]12 (some centres undefined)", 0.0868),
    ("CCCN1C(=O)N(CCC)C2C1NC(=S)N2/N=C/C=C/c1ccccc1OC (centres undefined)", 19),
    ("N#C/C(=C\\c1cccc2cnccc12)N1N=NC2C=CC=CC21 (centres undefined)", 18.8),
    ("c1ccc(-c2nc(N3CCNCC3)c3oc(-c4ccccc4)nc3n2)cc1", -32.6),
]

###

# growth listing for each entry below
Test system: HT29 colon
Experiment: NCI-60 one-dose screen, 48 h (100 = growth as untreated, 0 = no growth, -100 = all killed)
Details: 10 µM unless noted
The panel holds about 83,000 compounds, 20% with a hit somewhere; the sample as a whole holds those more often.

# molecule, unitInfo, growth
records = [
    ("O=C(/C=C\\c1ccc(O)c(O)c1)c1ccccc1O", "%", 90.8),
    ("COC1CC(O)C2=C(CC3C(/C(C)=C\\CC=C(C)C)CCC3(C)O2)C1=O (stereo not given)", "%", 99.4),
    ("CN1/C(=C/C=C/c2n(Cc3ccc4ccccc4c3)c(Cl)c(Cl)[n+]2Cc2ccc3ccccc3c2)Oc2ccccc21", "%", -79.7),
    ("N#C/C(Sc1nc2sc3c(c2c(=O)n1Cc1ccccc1)CCCC3)=C1/SC=C(c2ccc(Cl)cc2)N1c1ccccc1", "%", 98.7),
    ("O=C(/C=C/c1ccc([N+](=O)[O-])cc1)c1cccc(Nc2nc(Nc3ccccc3)nc(Nc3ccccc3)n2)c1", "%", 68.2),
]

###

Test system: SF-539 CNS
Experiment: NCI-60 one-dose screen, 48 h
Conditions: 10 µM unless noted
Compounds without any hit were thinned out: in the full panel of roughly 83,000, 20% have a hit. Activity calls are given as the source filed them. Rule for the calls: active = growth percent below 10; inactive = the rest.
Outcome codes: t (active), f (inactive)

# compound, answerLabel
measured = [
    ("COc1ccc(CNc2ccc3nc(CCC4CCCCC4)[nH]c3c2)cc1", "f"),
    ("CC1(C)CCC[C@]23C(=O)O[C@](O)(C(=O)C4=C[C@@](C)(/C=C/CCCc5ccc6ccc7cccc8ccc5c6c78)CC[C@@]42O)[C@@H]13", "t"),
    ("CNC1=C([N+](=O)[O-])C(c2ccc(OC)cc2)C(C#N)=C(c2ccc[nH]2)O1 (centres undefined)", "f"),
    ("C#C[C@]1(O)CC[C@H]2[C@@H]3CC=C4c5sc(-c6ccccc6)nc5CC[C@]4(C)[C@H]3CC[C@@]21C", "f"),
    ("CN(C)C(=O)OCc1ccc2c(Cl)cc(Cl)c(O)c2n1", "f"),
    ("COc1cccc2cc(N(C)c3nc(C)nc4c3CCC4)ccc12", "t"),
    ("C#Cc1c(I)n(C2OC(CO[Si](C)(C)C(C)(C)C)C3OC(C)(C)OC32)c(=O)[nH]c1=O (centres undefined)", "f"),
    ("COC1=C(OC)C(=O)C(CCCCCCCCCCO)=C(C)C1=O", "f"),
    ("CCCCCCC/C=N/NC(=O)c1ccc(-n2cc(-c3ccccc3)nn2)cc1", "f"),
]

The reported numbers originate from PubChem BioAssay (NCI).
